# Study Target: HLA-A*26:01
# Experiment Description: IEDB peptide-MHC binding, purified MHC/competitive/fluorescence; filed as Kd, often an IC50 or EC50 that approximates it; bounds were set here for any values at or beyond the usual limits of such assays
# Applied Conditions: source organism: Entamoeba histolytica HM-1:IMSS
pKd: −log10 of the molar value.
Property: pKd

## Task Lab note: need pKd with HLA-A*26:01 for entry IEAKINVAD , please look it up.
## Result ≤ 4.70

---

# Study Target: HLA-B*44:02
# Experiment Description: IEDB peptide-MHC binding, purified MHC/direct/fluorescence; filed as Kd, often an IC50 or EC50 that approximates it; bounds were set here for any values at or beyond the usual limits of such assays
# Applied Conditions: source organism: Mammarenavirus machupoense
Property: Kd

## Task So what's the measured Kd for this one? FHEFLSSKL
## Result ≥ 20 µM

Origin of measurements: the Immune Epitope Database (IEDB)
